target: Endothelin-converting enzyme 1 (Homo sapiens); test: Compound was tested in vitro for percent inhibition of a putative Endothelin-converting enzyme at 100 uM partially purified from rabbit lung membrane; assay type: tissue-based; settings: Oryctolagus cuniculus, target entry is the homologue from another species
Where a SMILES comes first, the peptide text is derived from it. The star is where a group is joined. Cbz = O=C(OCc1ccccc1)*
measureName: inhibition
Kindly write the number and append the unit.

Consider the worked cases shown below.
[
  {
    "molecule": "COC(=O)[C@H](Cc1c[nH]c2ccccc12)NC(=O)[C@H](CS)NC(=O)OCc1ccccc1 (Cbz-Cys-Trp-OMe)",
    "inhibition": "93%"
  },
  {
    "molecule": "COC(=O)[C@H](CC(C)C)NC(=O)[C@H](CS)NC(=O)OCc1ccccc1",
    "inhibition": "89%"
  },
  {
    "molecule": "COC(=O)[C@H](Cc1c[nH]c2ccccc12)NC(=O)[C@H](CC(C)C)NC(=O)[C@H](CS)NC(=O)OCc1ccccc1 (Cbz-Cys-Leu-Trp-OMe)",
    "inhibition": "83%"
  }
]

Hey, can you go through the list below and give me inhibition for every item?
1. CC(C)C[C@H](NC(=O)[C@H](CS)NC(=O)OCc1ccccc1)C(=O)N[C@@H](Cc1c[nH]c2ccccc12)C(=O)O (Cbz-Cys-Leu-Trp-OH)
2. O=C(N[C@@H](CS)C(=O)N[C@@H](Cc1c[nH]c2ccccc12)C(=O)O)OCc1ccccc1 (Cbz-Cys-Trp-OH)

stdout:
75%
90%

meta.source: ChEMBL document CHEMBL1127109
